Assay: Toxicity liver stage against HepG2, at 10uM
Assay type: cell-based
Parameters: test concentration 10 uM, cell line HepG2-A16-CD81EGFP
Conditions: human, HepG2-A16-CD81EGFP cells; read-out: INHIBITION

| compound | cytotoxicity at 10 µM |
| --- | --- |
| COc1ccccc1C1CNC(=O)c2nc(-c3cn(C)nc3C)[nH]c2C1 (configuration not stated) | -1.07% |
| CCNC(=O)[C@@H]1C[C@@H](NC(=O)CSC)CN1Cc1ccncc1 | -1.87% |
| Cc1cnn(C2(C(=O)O)CCN(c3ccnc4cc(Cl)ccc34)CC2)c1 | -6.07% |
| O=C(N1CCOCC1)N1CCC(Nc2ccncn2)CC1 | -57% |
| Cc1noc(C(C)Nc2ccc3oc(C(C)C)nc3c2)n1 (configuration not stated) | -7.84% |
| COC1(CNC(=O)c2ccoc2)CCSC1 (configuration not stated) | -10.8% |
| CC(C)c1noc(C(C)N2CCN(CCN3CCCC3=O)CC2)n1 (configuration not stated) | -10.6% |
| CN(C)C(=O)C1CCN(Cn2ccc(-c3ccc(F)cc3)n2)CC1 | 6.19% |
| CCC(NC(=O)C1CC1)c1ccccc1OCC(=O)N1CCCC1 (configuration not stated) | -9.16% |
| Cc1ccccc1CN(CCN(C)C)Cc1ccccc1C(=O)O | -1.97% |
| CCOC1CC2(CCN(c3cnccn3)CC2)c2ccccc21 (configuration not stated) | 5.54% |
| CCN(Cc1ccco1)C(=O)NCC(c1cccs1)N(C)C (configuration not stated) | 16.3% |
